System: UACC-62 melanoma
Assay: NCI tumour cell line growth inhibition, 48 h
Assignment: determine reported GI50 for the given compounds.

Query block: Dear colleague, please send me the reported GI50 for COc1cc2c(c(OC)c1OC)-c1ccc(O)c(=O)cc1[C@@H](NC(C)=O)CC2 when you can.
Result block: 3.82 µM

Query block: Dear colleague, please send me the reported GI50 for C=C(C)[C@@H]1CC[C@]2(CO)CC[C@]3(C)[C@H](CC[C@@H]4[C@@](C)(CCCN)[C@H](C(=C)C)CC[C@]43C)[C@@H]12 when you can.
Result block: 1.71 µM

Query block: Dear colleague, please send me the reported GI50 for CC(C)(C)n1cc(-c2ccnc(NCCCNS(=O)(=O)c3ccc(Br)cc3)c2)c(-c2cccc(O)c2)n1 when you can.
Result block: 1.59 µM

Query block: Dear colleague, please send me the reported GI50 for CCOC(=O)Nc1nc2cc(OCC)ccc2s1 when you can.
Result block: 58.3 µM

Query block: Dear colleague, please send me the reported GI50 for CCCCN(CC)c1ncnc2ccc(Br)cc12 when you can.
Result block: 15.7 µM

====

Assignment: determine reported log10 TGI for the given compounds.
System: SR leukemia
Experiment: NCI tumour cell line growth inhibition, 48 h
All values: log10 TGI [µM].

Query block: Dear colleague, please send me the reported log10 TGI for C/C(=C(/c1ccc(O)cc1)c1ccc(Cl)cc1)c1ccccc1 when you can.
Result block: 0.90

Query block: Dear colleague, please send me the reported log10 TGI for N=c1ccc2nc3c(cc(N)c4ccccc43)oc-2c1 when you can.
Result block: 0.11

Query block: Dear colleague, please send me the reported log10 TGI for CC1CN=C(c2ccc(-c3nc(-c4ccc(C5=NCC(C)N5)cc4)nc(N(C)C)n3)cc2)N1 (configuration not stated) when you can.
Result block: 0.40

Query block: Dear colleague, please send me the reported log10 TGI for Oc1c(CN2CCCC2)cc(CSCc2ccccc2)c2cccnc12 when you can.
Result block: 0.37

Query block: Dear colleague, please send me the reported log10 TGI for COc1cc2c3c(ncc2c(OC)c1OC)-c1cc2c(cc1C3)OCO2 when you can.
Result block: 1.25

Query block: Dear colleague, please send me the reported log10 TGI for Clc1ccc2c(c1)C(N1CCNCC1)=Nc1ccccc1O2 when you can.
Result block: 0.63

Query block: Dear colleague, please send me the reported log10 TGI for CNCCNc1nc2ccccc2c2c(=O)c3cc(F)ccc3sc12 when you can.
Result block: 0.63

Query block: Dear colleague, please send me the reported log10 TGI for CSc1nsc(S/C=C\C(=O)c2ccc(C)cc2)n1 when you can.
Result block: 0.75

Query block: Dear colleague, please send me the reported log10 TGI for CCCCCCNC(=O)Oc1ccc(/C(=C(/C)Cc2ccc(OC)cc2)c2ccc(OCCN(C)C)cc2)cc1 when you can.
Result block: 0.82

Query block: Dear colleague, please send me the reported log10 TGI for COC(=O)c1ccc(CN2C(=O)C(Cl)=C(Nc3ccc(OC)c(Cl)c3)C2=O)cc1 when you can.
Result block: 1.57

Query block: Dear colleague, please send me the reported log10 TGI for COc1cccc(C23CCCC(C2)N(C)CC3OC(=O)c2ccccc2)c1OC (configuration not stated) when you can.
Result block: 1.61

Query block: Dear colleague, please send me the reported log10 TGI for COc1ccc(OC)c(C[P+](c2ccccc2)(c2ccccc2)c2ccccc2)c1 when you can.
Result block: 0.78

Query block: Dear colleague, please send me the reported log10 TGI for Cc1c(C(=O)CC(=O)C(=O)Nc2cc(Cl)ccc2Cl)[n+](=O)c2ccccc2n1[O-] when you can.
Result block: 1.80

Query block: Dear colleague, please send me the reported log10 TGI for C[C@]12CC[C@@H](OC(=O)N(CCCl)N=O)C[C@@H]1CC[C@@H]1[C@@H]2CC[C@]2(C)C(=O)CC[C@@H]12 when you can.
Result block: 0.83

Query block: Dear colleague, please send me the reported log10 TGI for Cc1c(Cl)cccc1NC(=O)/C(Cl)=C(\Cl)C(=O)O when you can.
Result block: 1.60
